Recorded values, source the NIST ThermoML archive (doi:10.1016/j.jct.2015.04.027).

- Assay context: 308.15 K; 100 kPa; Liquid; Falling or rolling sphere viscometry
We label by threshold. Values of viscosity strictly beneath 2 mPa·s are criterion met. Values of 2 mPa·s and up are criterion not met.

CCCO [propan-1-ol] = criterion met
CO [methanol] = criterion met
CCO [ethanol] = criterion met
CN(C)C(=[NH2+])N(C)C.c1c[n-]cn1 [1,1,3,3-tetramethylguanidinium imidazol-1-ide] = criterion not met

----------
Each item that follows carries a reported viscosity.
- Assay context: 303.15 K; 100 kPa; Liquid; Falling or rolling sphere viscometry
± gives the expanded uncertainty stated by the source.
Measured parameter: viscosity

CCCO = 1.736 ± 0.037 mPa·s
CCCCO = 2.272 ± 0.049 mPa·s
CCO = 0.987 ± 0.021 mPa·s
CN(C)C(=[NH2+])N(C)C.c1c[n-]cn1 [1,1,3,3-tetramethylguanidinium imidazol-1-ide] = 6.044 ± 0.13 mPa·s
CO = 0.518 ± 0.011 mPa·s

----------
- Assay context: 313.15 K; 100 kPa; Liquid; Vibrating tube method
We label by threshold. Values of mass density strictly beneath 800 kg/m3 are Fulfilled. Values of 800 kg/m3 and up are Not fulfilled.

CN(C)C(=[NH2+])N(C)C.c1c[n-]cn1 [1,1,3,3-tetramethylguanidinium imidazol-1-ide] = Not fulfilled
CCO = Fulfilled
CO = Fulfilled

----------
- Assay context: 308.15 K; 100 kPa; Liquid; Vibrating tube method
Measured parameter: mass density (kg/m3)

CN(C)C(=[NH2+])N(C)C.c1c[n-]cn1 [1,1,3,3-tetramethylguanidinium imidazol-1-ide] = 983.9
CCCCO = 798.21
CO = 777.2
CCCO = 791.56
CCO = 776.48

----------
- Assay context: 313.15 K; 100 kPa; Liquid; Falling or rolling sphere viscometry
We label by threshold. Values of viscosity strictly beneath 1 mPa·s are t. Values of 1 mPa·s and up are f.

CCCO = f
CN(C)C(=[NH2+])N(C)C.c1c[n-]cn1 [1,1,3,3-tetramethylguanidinium imidazol-1-ide] = f
CO = t
CCO = t
CCCCO = f

----------
- Assay context: 298.15 K; 100 kPa; Liquid; Falling or rolling sphere viscometry
Measured parameter: log10(viscosity) (log10 of the value in mPa·s)

CO = -0.25
CN(C)C(=[NH2+])N(C)C.c1c[n-]cn1 [1,1,3,3-tetramethylguanidinium imidazol-1-ide] = 0.86
CCO = 0.03
CCCCO = 0.41
CCCO = 0.29

----------
Each item that follows carries a reported mass density.
- Assay context: 298.15 K; 100 kPa; Liquid; Vibrating tube method
Measured parameter: mass density (kg/m3)

CCO [ethanol] = 785.4
CCCO [propan-1-ol] = 799.71
CN(C)C(=[NH2+])N(C)C.c1c[n-]cn1 [1,1,3,3-tetramethylguanidinium imidazol-1-ide] = 992.8
CCCCO [butan-1-ol] = 805.92
CO [methanol] = 786.67

----------
- Assay context: 293.15 K; 100 kPa; Liquid; Falling or rolling sphere viscometry
Each item that follows carries a reported viscosity.
Measured parameter: viscosity (mPa·s)

CO [methanol] = 0.597
CN(C)C(=[NH2+])N(C)C.c1c[n-]cn1 [1,1,3,3-tetramethylguanidinium imidazol-1-ide] = 8.952
CCCCO [butan-1-ol] = 2.918
CCO [ethanol] = 1.186
CCCO [propan-1-ol] = 2.217
